Entries and their z-score
# assay.details: basal RPMI8226 viability, no added stimulus, profiling panel, cell-based, calcein-AM fluorescence, 48 h, PK04 Diversity Set (AID 1166);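 also: cells grown under basal conditions without added stimulus; test concentration not given here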
# assay.context: RPMI8226 myeloma viability, higher = more signal
parameter: z-score

[[record]]
molecule = "CC(C)(C)N1C(=O)[C@H]2[C@H]3[C@H](O)C=CC(=O)[C@@H]3CC[C@H]2C1=O"
parameter = "z-score"
numeric_readout = 0.311

[[record]]
molecule = "CCOC(=O)[C@H](CC(C)C)NC(=O)CCC1CC(OC(=O)NCCc2ccc(F)cc2)CC2(CCCC(COC(=O)NCC3CCCCC3)O2)O1 (stereo partly drawn)"
parameter = "z-score"
numeric_readout = 0.444

[[record]]
molecule = "C[C@@H](c1ccccc1)N1C(=O)[C@H]2[C@H]3[C@H](O)[C@H](O)CC(=NO[C@@H]4O[C@H](CO)[C@@H](O)[C@H](O)[C@H]4O)[C@H]3CC[C@H]2C1=O"
parameter = "z-score"
numeric_readout = -0.599

[[record]]
molecule = "CCOC(=O)[C@H](Cc1ccccc1)NC(=O)CCC1CC(OC(=O)NCCc2ccc(F)cc2)CC2(CCCC(COC(=O)NCc3ccccc3)O2)O1 (stereo partly drawn)"
parameter = "z-score"
numeric_readout = -0.816

[[record]]
molecule = "CC(C)CON=C1C[C@@H](O)[C@@H](O)[C@@H]2[C@@H]3C(=O)N(C4CCCCC4)C(=O)[C@@H]3CC[C@H]12"
parameter = "z-score"
numeric_readout = -0.909

[[record]]
molecule = "Cc1cc2c(nc1C)CCCCN2CC(C)ON=C[C@@H](C)[C@H](OCc1ccccc1)C(C)C (stereo partly drawn)"
parameter = "z-score"
numeric_readout = -3.77

[[record]]
molecule = "CCO[C@H](c1cc(OC)cc([N+](=O)[O-])c1OC)[C@H](C)C=CCC(=O)OC"
parameter = "z-score"
numeric_readout = 0.799

[[record]]
molecule = "COC(=O)CC=C[C@H](C)[C@@H](OCc1cccc(Br)c1)[C@@H](C)[C@H](OC)C1CCCCC1"
parameter = "z-score"
numeric_readout = -0.474

[[record]]
molecule = "O=C1CCCC=C1C(O)CCCCBr (stereo not drawn)"
parameter = "z-score"
numeric_readout = -3.71

[[record]]
molecule = "CC(CCN1CCCCc2nc(C)c(C)cc21)=NO[C@H](C)c1cn([C@H](CO)Cc2ccccc2)nn1"
parameter = "z-score"
numeric_readout = -1.4

[[record]]
molecule = "CCOC(=O)NN=C1C[C@@H](O)[C@@H](O)[C@@H]2[C@@H]3C(=O)N(Cc4ccc5c(c4)OCO5)C(=O)[C@@H]3CC[C@H]12"
parameter = "z-score"
numeric_readout = -0.0903

[[record]]
molecule = "O=C1OCCC=C1C(O)CCc1ccccc1 (stereo not drawn)"
parameter = "z-score"
numeric_readout = 0.146

[[record]]
molecule = "O=C1C2=CC[C@H]3C(=O)N(c4cccc(Oc5ccccc5)c4)C(=O)[C@H]3[C@H]2[C@H](O)[C@@H]2O[C@H]12"
parameter = "z-score"
numeric_readout = -3.84


* * *

Catalogue of composite z-score values
# Test system: Sam68 (KHDRBS1)
# assay.details: Sam68 small-molecule binders, primary screen, biochemical, small-molecule microarray, 635 nm fluorescence (AID 1125);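 also: score merges 667 nm channel intensity with signal to noise over triplicate slides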
# assay.context: small-molecule microarray binding, higher = more signal
parameter: composite z-score

[[record]]
compound = "CCCNC(=O)OC[C@H]1O[C@H](CCON=Cc2ccc(C(=O)N3[C@H](c4ccc(C)cc4)[C@@H](C)CC[C@H]3C(=O)OC)cc2)C=C[C@@H]1Oc1ccc(OC)cc1"
numeric_readout = 1.08

[[record]]
compound = "COc1ccc(COC(=O)NN=C2C[C@@H](O)[C@@H](O)[C@@H]3[C@@H]4C(=O)N(c5ccc(F)cc5F)C(=O)[C@@H]4CC[C@H]23)cc1"
numeric_readout = -0.169

[[record]]
compound = "C[C@H]1CC[C@H]2C(=O)OC(CO)CN2[C@@H]1c1ccc(Br)cc1 (stereo not given in full)"
numeric_readout = 0.253

[[record]]
compound = "CCOC(=O)[C@H](CC(C)C)NC(=O)CCC1CC(OC(=O)NCc2cccc3ccccc23)CC2(CCCC(COC(=O)NCCCN3CCCC3=O)O2)O1 (stereo not given in full)"
numeric_readout = 1.29

[[record]]
compound = "COc1cccc([C@H]2Oc3ccc(OC)cc3C(=NOC[C@@H](C)[C@H](OCc3ccccc3)C(C)C)[C@@H]2O)c1"
numeric_readout = 0.413


* * *

# study.system: Dihydroorotate dehydrogenase (quinone), mitochondrial (Plasmodium falciparum (isolate 3D7))
# assay.details: PfDHODH enzyme inhibitors, primary screen, biochemical, C-terminal His tag, absorbance 600 nm (AID 1175);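 also: recombinant parasite enzyme with a five histidine tag at its C terminus; test concentration not given here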
# assay.context: DCIP absorbance 600 nm, higher = more signal, called active from +8 up or from −8 down
The source made the active and inactive calls.
Recorded composite z-score by entry
parameter: composite z-score

[[record]]
compound = "COC(=O)C1=C(C)N(Cc2ccccc2)[C@]23O[C@](C(=O)OC)(C(=O)N2[C@@H]1c1ccccc1)C(C(=O)OC)=C3C(=O)OC"
parameter = "composite z-score"
result = "-2.7 (inactive)"

[[record]]
compound = "O=C1[C@H]2[C@H]3[C@H](O)[C@H](O)CC(=NOCc4ccccc4)[C@@H]3CC[C@H]2C(=O)N1Cc1ccc2c(c1)OCO2"
parameter = "composite z-score"
result = "-0.0799 (inactive)"

[[record]]
compound = "CC(=O)OC[C@H]1O[C@H](CCON=C2[C@H]3CCn4c(=O)n(-c5ccccc5)c(=O)n4[C@H]3[C@H](O)[C@@H]3O[C@H]23)C=C[C@@H]1OC(C)=O"
parameter = "composite z-score"
result = "0.33 (inactive)"

[[record]]
compound = "O=C1C[C@@H](O)[C@@H](O)[C@@H]2[C@@H]3C(=O)N(C[C@@H]4CCCO4)C(=O)[C@@H]3CC[C@H]12"
parameter = "composite z-score"
result = "0.602 (inactive)"

[[record]]
compound = "CCOC(=O)[C@H](Cc1ccccc1)NC(=O)CCC1CC(OC(=O)NCc2cccc3ccccc23)CC2(CCCC(COC(=O)NCc3ccccc3)O2)O1 (stereo not given in full)"
parameter = "composite z-score"
result = "-2.79 (inactive)"


* * *

# assay.details: compound binding in COS7 lysate, probe aLAP1, primary screen, cell lysate, small-molecule microarray (AID 1124);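 also: lysate comes from COS7 cells expressing LAP1 and is applied at 0.3 µg/mL; score merges spot fluorescence near 667 nm with signal-to-noise over triplicate slides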
# assay.context: probe aLAP1, fluorescence, higher = more signal
Measured composite z-score, listed per entry.
parameter: composite z-score

[[record]]
compound = "CO[C@@H]1C=CCC(=O)N2CCC[C@H]2C(=O)OC[C@@H](C)C(=O)OC[C@H]1C"
parameter = "composite z-score"
numeric_readout = -0.176

[[record]]
compound = "COc1ccc(COC(=O)NN=C2C[C@@H](O)[C@@H](O)[C@@H]3[C@@H]4C(=O)N(Cc5ccccc5)C(=O)[C@@H]4CC[C@H]23)cc1"
parameter = "composite z-score"
numeric_readout = -0.173

[[record]]
compound = "CC(=O)OC[C@H]1O[C@H](CCON=C2[C@H]3CCn4c(=O)n(-c5ccccc5)c(=O)n4[C@H]3[C@H](O)[C@@H]3O[C@H]23)C=C[C@@H]1OC(C)=O"
parameter = "composite z-score"
numeric_readout = -0.0654

[[record]]
compound = "CC(=O)O[C@H]1C2=CO[C@H](C)[C@H]3[C@H]4C5=C([C@H](O)[C@H]6O[C@H]6C5=O)[C@H](OC4C)[C@@]23C(=O)[C@@H]2O[C@@H]21 (some centres undefined)"
parameter = "composite z-score"
numeric_readout = 0.228


* * *

# assay.details: modulators of S6 phosphorylation in cells, primary screen, cell-based, A549, cytoblot, luminescence, serum-stimulated (AID 1158);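 also: serum-stimulated A549 lung adenocarcinoma cells; signal is phosphorylated S6 detected by cytoblot immunostaining with HRP secondary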
# assay.context: A549 phospho-S6 cytoblot, 5 h, higher = more signal
Returns Condition met if the recorded z-score is greater than or equal to -0.1, and Condition not met otherwise.

[[record]]
molecule = "O=C1C[C@@H](O)[C@@H](O)[C@@H]2[C@@H]3C(=O)N(Cc4ccc5c(c4)OCO5)C(=O)[C@@H]3CC[C@H]12"
class = "Condition not met"

[[record]]
molecule = "CCCCC#C[C@@H]1C=C[C@H](OC(C)=O)[C@@H](COC(C)=O)O1"
class = "Condition not met"

[[record]]
molecule = "CCOC(=O)CCN1C(=O)[C@H]2[C@H]3[C@H](O)[C@H](O)CC(=NNC(=O)OCc4ccccc4)[C@@H]3CC[C@H]2C1=O"
class = "Condition met"

[[record]]
molecule = "CO[C@H]1COC(=O)CC=C[C@@H](C)[C@H](OC)COC(=O)[C@@H]2CCCN2C(=O)CC=C[C@@H]1C"
class = "Condition met"

[[record]]
molecule = "CC(=O)O[C@H]1C2=CO[C@H](C)[C@H]3[C@H]4C5=C([C@H](O)[C@H]6O[C@H]6C5=O)[C@H](OC4C)[C@@]23C(=O)[C@@H]2O[C@@H]21 (some centres undefined)"
class = "Condition not met"

[[record]]
molecule = "COC(=O)C1=C(C)N(Cc2ccccc2)[C@]23O[C@](C(=O)OC)(C(=O)N2[C@@H]1c1ccccc1)C(C(=O)OC)=C3C(=O)OC"
class = "Condition met"

[[record]]
molecule = "CC(C)(C)N1C(=O)[C@H]2[C@H]3[C@H](O)[C@H](O)CC(=NOCc4ccccc4)[C@H]3CC[C@H]2C1=O"
class = "Condition not met"

[[record]]
molecule = "CO[C@H]1COC(=O)CC=C[C@H](C)COC(=O)[C@@H](C)NC(=O)CC=C[C@@H]1C"
class = "Condition met"

[[record]]
molecule = "CCOC(=O)[C@H](Cc1ccccc1)NC(=O)CCC1CC(OC(=O)NCCc2ccc(F)cc2)CC2(CCCC(COC(=O)NCc3ccccc3)O2)O1 (some centres undefined)"
class = "Condition met"

[[record]]
molecule = "CCOC(=O)[C@H](Cc1ccccc1)NC(=O)CCC1CC(OC(=O)NCCc2ccc(F)cc2)CC2(CCCC(COC(=O)NCCc3ccccc3OC)O2)O1 (some centres undefined)"
class = "Condition met"

[[record]]
molecule = "CCOC(=O)[C@H](Cc1ccccc1)NC(=O)CCC1CC(OC(=O)NCc2ccc3c(c2)OCO3)CC2(CCCC(COC(=O)NCCc3ccccc3OC)O2)O1 (some centres undefined)"
class = "Condition not met"

[[record]]
molecule = "CCOC(=O)[C@H](Cc1ccccc1)NC(=O)CCC1CC(OC(=O)NCCc2ccc(F)cc2)CC2(CCCC(COC(=O)NCCCN3CCCC3=O)O2)O1 (some centres undefined)"
class = "Condition met"

[[record]]
molecule = "CO[C@H]1COC(=O)[C@@H](C)COC(=O)[C@H](COCc2ccccc2)NC(=O)CC=C[C@H]1C"
class = "Condition met"

